ASSAY_NAME: Pharmacokinetic profile in mice after I.V. injection (LC-MS/MS of plasma, brain, liver, kidney)
Format: in vivo, mouse
RECORDED_CONDITIONS: male, C57BL/6, mouse, iv; brain, 200 mg/kg I.V.; read-out: AUC24h
From the text: The wild-type group housed male C57BL/6 mice 10–12 weeks of age were used for all in vivo, ex vivo, and behavioral studies. This age range was selected to be consistent with previous studies of conditional Cdk5 knockout mice ([Plattner et al., 2015]). […] A quantitative determination of 25–106 in mouse plasma and tissue homogenate was accomplished by the use of protein precipitation and high-performance liquid chromatography with tandem mass spectrometry detection (LC-MS/MS). […]
REPORTED_METRIC: AUC(0-t) (ng·h/mL)
# output: bare number, implied unit ng·h/mL

// lookup AUC(0-t) for COc1cc(CC(=O)Nc2cc(C3CCC3)[nH]n2)cc(OC)c1OC
960

###

ASSAY_NAME: Pharmacokinetic profile in mice after I.V. injection (LC-MS/MS of plasma, brain, liver, kidney)
Format: in vivo, mouse
RECORDED_CONDITIONS: male, C57BL/6, mouse, iv; plasma, 200 mg/kg I.V.; read-out: AUC24h
Source text: The wild-type group housed male C57BL/6 mice 10–12 weeks of age were used for all in vivo, ex vivo, and behavioral studies. This age range was selected to be consistent with previous studies of conditional Cdk5 knockout mice ([Plattner et al., 2015]). […] A quantitative determination of 25–106 in mouse plasma and tissue homogenate was accomplished by the use of protein precipitation and high-performance liquid chromatography with tandem mass spectrometry detection (LC-MS/MS). […]
REPORTED_METRIC: AUC(0-t)

// lookup AUC(0-t) for COc1cc(CC(=O)Nc2cc(C3CCC3)[nH]n2)cc(OC)c1OC
12000 ng·h/mL

###

ASSAY_NAME: Pharmacokinetic profile in mice after I.V. injection (LC-MS/MS of plasma, brain, liver, kidney)
Type: in vivo, mouse
RECORDED_CONDITIONS: male, C57BL/6, mouse, kidney, iv, 200 mg/kg, 200 mg/kg I.V.
REPORTED_METRIC: clearance (mL/min)
# output: bare number, implied unit mL/min

// lookup clearance for COc1cc(CC(=O)Nc2cc(C3CCC3)[nH]n2)cc(OC)c1OC [25–106]
227

###

ASSAY_NAME: Pharmacokinetic profile in mice after I.V. injection (LC-MS/MS of plasma, brain, liver, kidney)
Type: in vivo, mouse
RECORDED_CONDITIONS: male, C57BL/6, mouse, iv; plasma, 200 mg/kg I.V.; read-out: Ke (converted)
REPORTED_METRIC: k el (s⁻¹)
# output: bare number, implied unit s⁻¹

// lookup k el for COc1cc(CC(=O)Nc2cc(C3CCC3)[nH]n2)cc(OC)c1OC
2.22e-05

###

ASSAY_NAME: Pharmacokinetic profile in mice after I.V. injection (LC-MS/MS of plasma, brain, liver, kidney)
Assay type: in vivo, mouse
RECORDED_CONDITIONS: male, C57BL/6, mouse, iv; brain, 100 mg/kg I.V.; read-out: Ke (converted)
Text: The wild-type group housed male C57BL/6 mice 10–12 weeks of age were used for all in vivo, ex vivo, and behavioral studies. This age range was selected to be consistent with previous studies of conditional Cdk5 knockout mice ([Plattner et al., 2015]). […] A quantitative determination of 25–106 in mouse plasma and tissue homogenate was accomplished by the use of protein precipitation and high-performance liquid chromatography with tandem mass spectrometry detection (LC-MS/MS). […]
REPORTED_METRIC: k el
Answer shape: numeric part, then the unit.

// lookup k el for COc1cc(CC(=O)Nc2cc(C3CCC3)[nH]n2)cc(OC)c1OC [25–106]
3.89e-05 s⁻¹
